biological target: C. parvum hexokinase (CpHK) (Cryptosporidium parvum, UniProt Q5CWT5); test: biochemical; format: biochemical
pIC50: −log10 of the molar value. Structures can show the parent of a compound that is named as a salt.
Recorded measurements of pIC50, one per entry

molecule | pIC50
CCCCC(CC)CNC(=N)NC(=N)NCCCCCCNC(=N)NC(=N)NCC(CC)CCCC (stereo not shown) [Alexidine•2HCl, alexidine dihydrochloride] | 4.66
O=c1c2ccccc2[se]n1-c1ccccc1 | 6.62
O=CC[C@@H](O)[C@H](O)[C@H](O)CO | 2.24
Oc1c(Cl)cc(Cl)c(Cl)c1Cc1c(O)c(Cl)cc(Cl)c1Cl | 5.06

* * *

target: C. parvum hexokinase (CpHK) (Cryptosporidium parvum, UniProt Q5CWT5); assay: biochemical; format: biochemical; details: inhibitory kinetics
Counter-ions that a name gives are not always drawn.

molecule | target | Mode of inhibition of CpHK
CCCCC(CC)CNC(=N)NC(=N)NCCCCCCNC(=N)NC(=N)NCC(CC)CCCC (stereo not shown) [Alexidine•2HCl, alexidine dihydrochloride] | C. parvum hexokinase (CpHK) (Cryptosporidium parvum, UniProt Q5CWT5) | noncompetitive inhibitor
O=c1c2ccccc2[se]n1-c1ccccc1 | C. parvum hexokinase (CpHK) (Cryptosporidium parvum, UniProt Q5CWT5) | noncompetitive inhibitor

* * *

tested on: C. parvum; assay: Efficacy against C. parvum growth in vitro in HCT-8 cells, qRT-PCR assay; settings: Cryptosporidium parvum, HCT-8, read-out: Efficacy on C. parvum (EC50)
Where a name gives a salt, the structure may show the parent alone.

molecule | target | EC50 / µM
CCCCC(CC)CNC(=N)NC(=N)NCCCCCCNC(=N)NC(=N)NCC(CC)CCCC (centres unmarked) [Alexidine•2HCl, alexidine dihydrochloride] | C. parvum | 8.1
Oc1c(Cl)cc(Cl)c(Cl)c1Cc1c(O)c(Cl)cc(Cl)c1Cl [Hexachlorophene] | C. parvum | 0.53

* * *

target: C. parvum hexokinase (CpHK) (Cryptosporidium parvum, UniProt Q5CWT5); assay: biochemical; format: biochemical; settings: read-out: Effect on CpHK, IC50
pIC50: −log10 of the molar value.

molecule | pIC50
OC[C@H]1OC(O)[C@H](F)[C@@H](O)[C@@H]1O (stereo partly shown) [FDG, fluorodeoxyglucose] | 2.43

* * *

test system: C. parvum; assay: Efficacy against C. parvum growth in vitro in HCT-8 cells, qRT-PCR assay; settings: read-out: Efficacy on C. parvum (EC50); in vitro

compound | EC50, nM
C[CH2][Hg][S]c1ccccc1C(=O)[O-].[Na+] [Thimerosal] | 1770

* * *

system: C. parvum; experiment: Efficacy against C. parvum growth in vitro in HCT-8 cells, qRT-PCR assay; conditions: Cryptosporidium parvum, HCT-8, 44 h, read-out: In vitro efficacy (EC50)
pEC50: −log10 of the molar value.

compound | pEC50
O=CC[C@@H](O)[C@H](O)[C@H](O)COP(=O)(O)O [2DG6P, 2-deoxy-D-glucose-6-phosphate] | 1.74
O=CC[C@@H](O)[C@H](O)[C@H](O)CO | 3.27

* * *

Listed next: entries and their corresponding pIC50.
Biological target: human (Homo sapiens) HK-I (HsHK1) (Homo sapiens, UniProt P19367)
Sequence (P19367 1-917): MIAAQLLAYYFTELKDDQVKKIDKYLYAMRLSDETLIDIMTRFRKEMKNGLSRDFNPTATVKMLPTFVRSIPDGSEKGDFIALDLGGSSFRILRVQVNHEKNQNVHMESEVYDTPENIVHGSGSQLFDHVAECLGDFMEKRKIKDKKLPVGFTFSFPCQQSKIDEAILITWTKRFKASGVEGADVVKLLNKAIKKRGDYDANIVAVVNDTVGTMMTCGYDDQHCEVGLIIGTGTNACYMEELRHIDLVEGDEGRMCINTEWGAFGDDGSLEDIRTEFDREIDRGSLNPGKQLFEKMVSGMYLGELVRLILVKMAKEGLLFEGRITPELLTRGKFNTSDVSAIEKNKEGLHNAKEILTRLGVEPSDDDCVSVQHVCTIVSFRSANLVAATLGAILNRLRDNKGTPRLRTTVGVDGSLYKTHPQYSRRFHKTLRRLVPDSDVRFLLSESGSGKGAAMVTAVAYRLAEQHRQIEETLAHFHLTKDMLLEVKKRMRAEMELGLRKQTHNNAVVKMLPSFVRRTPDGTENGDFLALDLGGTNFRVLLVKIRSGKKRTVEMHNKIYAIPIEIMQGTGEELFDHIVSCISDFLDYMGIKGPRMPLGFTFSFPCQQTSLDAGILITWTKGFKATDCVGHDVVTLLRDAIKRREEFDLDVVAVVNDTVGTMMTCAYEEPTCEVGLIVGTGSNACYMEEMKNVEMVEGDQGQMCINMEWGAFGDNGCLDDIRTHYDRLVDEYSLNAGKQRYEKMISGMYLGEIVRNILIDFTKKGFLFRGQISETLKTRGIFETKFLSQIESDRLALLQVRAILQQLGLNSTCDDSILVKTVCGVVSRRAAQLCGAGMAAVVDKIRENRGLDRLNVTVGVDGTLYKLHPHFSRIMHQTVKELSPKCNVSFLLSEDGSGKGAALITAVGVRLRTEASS
Assay: HsHK1 inhibition, HK/G6PDH-coupled assay
Type: biochemical
pIC50: −log10 of the molar value. Counter-ions that a name gives are not always drawn.
measured-endpoint: pIC50

compound | target | measured-endpoint | quantitative-readout
Oc1c(Cl)cc(Cl)c(Cl)c1Cc1c(O)c(Cl)cc(Cl)c1Cl | human (Homo sapiens) HK-I (HsHK1) (Homo sapiens, UniProt P19367) | pIC50 | 5.19
O=CC[C@@H](O)[C@H](O)[C@H](O)CO | human (Homo sapiens) HK-I (HsHK1) (Homo sapiens, UniProt P19367) | pIC50 | 2.00
CCCCC(CC)CNC(=N)NC(=N)NCCCCCCNC(=N)NC(=N)NCC(CC)CCCC (stereo not shown) [Alexidine•2HCl, alexidine dihydrochloride] | human (Homo sapiens) HK-I (HsHK1) (Homo sapiens, UniProt P19367) | pIC50 | 4.64
O=c1c2ccccc2[se]n1-c1ccccc1 | human (Homo sapiens) HK-I (HsHK1) (Homo sapiens, UniProt P19367) | pIC50 | 6.58
